# Test details: Cytotoxicity against human MT4 cells assessed as reduction in cell viability after 5 days by MTT assay
# Type: cell-based
Measured CC50 at 120 h values are reported for all entries that follow.

Examples from the recorded data:
Cc1cc(C)nc(Sc2ccnc(Nc3ccc(C#N)cc3)n2)n1; 224 µM
N#Cc1ccc(Nc2nccc(OCc3cccc(F)c3)n2)cc1; 105 µM
N#Cc1ccc(Nc2nccc(OCc3cc(F)ccc3Br)n2)cc1; 190 µM

Consider now this further compound.
Which CC50 at 120 h is listed for `Cc1ccc(COc2ccnc(Nc3ccc(C#N)cc3)n2)cc1` ?
81 µM

Source of measurements: ChEMBL document CHEMBL4038278
